system: BaF3; experiment: cells; conditions: Mus musculus, BaF3, 72 h
Description: Antiproliferative activity against mouse BaF3 parent cell measured after 72 hrs by CCK-8 assay
IC50 overview
Entry rule: numbers only, all in nM.

Field: example entries. Status: answers known.
C=CC(=O)Nc1cc(Nc2ncc(Cl)c(O[C@@H]3CO[C@H]4[C@@H]3OC[C@H]4OC(C)C)n2)ccc1N(C)CCN(C)C 205
C=CC(=O)Nc1cc(Nc2ncc(Cl)c(O[C@@H]3CO[C@H]4[C@@H]3OC[C@H]4F)n2)ccc1N(C)CCN(C)C 519
C=CC(=O)Nc1cc(Nc2ncc(Cl)c(O[C@@H]3CO[C@H]4[C@@H]3OC[C@H]4OC)n2)ccc1N(C)CCN(C)C 165

Proceeding to the next compound to report its IC50.
# return recorded IC50 for input C=CC(=O)Nc1cc(Nc2ncc(Cl)c(O[C@@H]3CO[C@H]4[C@@H]3OC[C@@H]4F)n2)ccc1N(C)CCN(C)C
476

====

assay: Half life in 12 hr fasted SPF Sprague-Dawley rat at 5 mg/kg, iv upon 2 hrs fasting post-administration measured upto 24 hrs; format: ADME, organism-based; settings: in vivo
half-life overview

C=CC(=O)Nc1cc(Nc2ncc(Cl)c(O[C@@H]3CO[C@H]4[C@@H]3OC[C@H]4OC)n2)ccc1N(C)CCN(C)C 54.6 min

Proceeding to the next molecule to report its half-life.
# return recorded half-life for input C=CC(=O)Nc1cc(Nc2ncc(Cl)c(O[C@@H]3CO[C@H]4[C@@H]3OC[C@H]4O)n2)ccc1N(C)CCN(C)C
48 min

====

Cmax overview
assay: Cmax in 12 hr fasted SPF Sprague-Dawley rat at 15 mg/kg, po upon 2 hrs fasting post-administration measured upto 24 hrs; assay type: ADME, organism-based; parameters: time < 24 hrs, dose 15 mg/kg, route po; conditions: in vivo
Answer with the number, then the unit.

C=CC(=O)Nc1cc(Nc2ncc(Cl)c(O[C@@H]3CO[C@H]4[C@@H]3OC[C@H]4OC)n2)ccc1N(C)CCN(C)C 238 ng/mL

# return recorded Cmax for input C=CC(=O)Nc1cc(Nc2ncc(Cl)c(O[C@@H]3CO[C@H]4[C@@H]3OC[C@H]4O)n2)ccc1N(C)CCN(C)C
79.1 ng/mL

====

assay: Oral bioavailability in 12 hr fasted SPF Sprague-Dawley rat at 15 mg/kg upon 2 hrs fasting post-administration measured upto 24 hrs; assay type: ADME, organism-based; details: in vivo
bioavailability overview
Entry rule: numbers only, all in %.

# return recorded bioavailability for input C=CC(=O)Nc1cc(Nc2ncc(Cl)c(O[C@@H]3CO[C@H]4[C@@H]3OC[C@H]4OC)n2)ccc1N(C)CCN(C)C
20.7

# return recorded bioavailability for input C=CC(=O)Nc1cc(Nc2ncc(Cl)c(O[C@@H]3CO[C@H]4[C@@H]3OC[C@H]4O)n2)ccc1N(C)CCN(C)C
12.4

====

IC50 overview
test system: BaF3; experiment: cells; conditions: Mus musculus, BaF3, 72 h
Entry rule: numbers only, all in nM.

chemical_string	target_under_test	units	numeric_value
C=CC(=O)Nc1cc(Nc2ncc(Cl)c(O[C@@H]3CO[C@H]4[C@@H]3OC[C@H]4OCC)n2)ccc1N(C)CCN(C)C	BaF3	nM	161
C=CC(=O)Nc1cc(Nc2ncc(Cl)c(O[C@@H]3CO[C@H]4[C@@H]3OCC4(F)F)n2)ccc1N(C)CCN(C)C	BaF3	nM	214
C=CC(=O)Nc1cc(Nc2ncc(Cl)c(O[C@@H]3CO[C@H]4[C@@H]3OC[C@H]4O)n2)ccc1N(C)CCN(C)C	BaF3	nM	102

Under BaF3: report IC50 of C=CC(=O)Nc1cc(Nc2ncc(Cl)c(O[C@@H]3CO[C@H]4[C@@H]3OC[C@H]4O)n2)ccc1N1CCC(N2CCN(C)CC2)CC1 .
40.4

Under BaF3: report IC50 of CN1CCN(C2CCN(c3ccc(Nc4ncc(Cl)c(O[C@@H]5CO[C@H]6[C@@H]5OC[C@H]6O)n4)cc3Cl)CC2)CC1 .
1380

====

assay: Metabolic stability in rat liver microsome assessed as half life preincubated for 5 mins followed by NADPH addition measured upto 45 mins by LC/MS analysis; assay type: ADME; settings: liver microsomes, time < 50 min
recorded_metric: half-life at […] (h)
Entry rule: numbers only, all in h.

# return recorded half-life at […] for input C=CC(=O)Nc1cc(Nc2ncc(Cl)c(O[C@@H]3CO[C@H]4[C@@H]3OC[C@H]4O)n2)ccc1N(C)CCN(C)C
2

====

assay: AUC(0 to infinity) in 12 hr fasted SPF Sprague-Dawley rat at 15 mg/kg, po upon 2 hrs fasting post-administration upto 24 hrs; format: ADME, organism-based; set-up: dose 15 mg/kg, time < 24 hrs, route po; settings: in vivo
AUC(0-inf) overview
Answer with the number, then the unit.

C=CC(=O)Nc1cc(Nc2ncc(Cl)c(O[C@@H]3CO[C@H]4[C@@H]3OC[C@H]4OC)n2)ccc1N(C)CCN(C)C 334 ng·h/mL

Proceeding to the next molecule to report its AUC(0-inf).
# return recorded AUC(0-inf) for input C=CC(=O)Nc1cc(Nc2ncc(Cl)c(O[C@@H]3CO[C@H]4[C@@H]3OC[C@H]4O)n2)ccc1N(C)CCN(C)C
105 ng·h/mL

====

target: Non-receptor tyrosine-protein kinase TYK2 (Homo sapiens); assay: Inhibition of human TYK2
Sequence (P29597 whole entry): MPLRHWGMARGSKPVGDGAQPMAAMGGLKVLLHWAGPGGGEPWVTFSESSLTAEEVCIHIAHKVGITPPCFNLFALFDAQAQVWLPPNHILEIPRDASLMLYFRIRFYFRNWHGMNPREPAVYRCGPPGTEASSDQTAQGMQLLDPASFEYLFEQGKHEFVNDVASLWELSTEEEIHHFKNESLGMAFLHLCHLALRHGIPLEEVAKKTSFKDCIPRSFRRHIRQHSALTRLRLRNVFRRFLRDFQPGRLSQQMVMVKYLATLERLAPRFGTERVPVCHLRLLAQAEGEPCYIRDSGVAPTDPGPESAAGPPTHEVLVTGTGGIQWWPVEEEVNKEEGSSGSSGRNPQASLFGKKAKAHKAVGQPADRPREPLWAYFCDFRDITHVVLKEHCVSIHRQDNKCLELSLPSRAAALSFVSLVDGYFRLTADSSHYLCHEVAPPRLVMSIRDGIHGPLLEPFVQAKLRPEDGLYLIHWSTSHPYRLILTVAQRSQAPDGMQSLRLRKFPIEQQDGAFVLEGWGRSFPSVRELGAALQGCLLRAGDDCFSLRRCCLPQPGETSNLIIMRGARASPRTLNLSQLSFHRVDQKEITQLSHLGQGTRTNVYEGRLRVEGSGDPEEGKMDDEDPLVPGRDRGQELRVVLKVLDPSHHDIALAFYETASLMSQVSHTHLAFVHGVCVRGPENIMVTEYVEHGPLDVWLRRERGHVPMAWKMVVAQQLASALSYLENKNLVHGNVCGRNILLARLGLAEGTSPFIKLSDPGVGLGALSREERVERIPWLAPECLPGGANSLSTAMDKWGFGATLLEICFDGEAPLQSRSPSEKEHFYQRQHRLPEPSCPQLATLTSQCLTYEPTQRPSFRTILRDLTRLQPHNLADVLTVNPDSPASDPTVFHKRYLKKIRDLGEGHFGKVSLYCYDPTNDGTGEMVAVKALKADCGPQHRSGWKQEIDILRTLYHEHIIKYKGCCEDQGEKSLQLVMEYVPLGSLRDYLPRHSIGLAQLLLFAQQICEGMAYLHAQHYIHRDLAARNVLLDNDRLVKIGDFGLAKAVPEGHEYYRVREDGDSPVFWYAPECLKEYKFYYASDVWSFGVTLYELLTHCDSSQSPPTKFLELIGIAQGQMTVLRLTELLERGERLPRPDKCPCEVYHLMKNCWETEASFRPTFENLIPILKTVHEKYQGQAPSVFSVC
recorded_metric: IC50 (nM)
Entry rule: numbers only, all in nM.

# return recorded IC50 for input C=CC(=O)Nc1cc(Nc2ncc(Cl)c(O[C@@H]3CO[C@H]4[C@@H]3OC[C@H]4OC)n2)ccc1N(C)CCN(C)C
365

====

half-life overview
assay: Half life in 12 hr fasted SPF Sprague-Dawley rat at 15 mg/kg, po upon 2 hrs fasting post-administration measured upto 24 hrs; assay type: ADME, organism-based; details: in vivo
Entry rule: numbers only, all in h.

C=CC(=O)Nc1cc(Nc2ncc(Cl)c(O[C@@H]3CO[C@H]4[C@@H]3OC[C@H]4O)n2)ccc1N(C)CCN(C)C 1.02

# return recorded half-life for input C=CC(=O)Nc1cc(Nc2ncc(Cl)c(O[C@@H]3CO[C@H]4[C@@H]3OC[C@H]4OC)n2)ccc1N(C)CCN(C)C
0.98

====

system: U-937; experiment: cells; conditions: Homo sapiens, U-937, 72 h
Rule: IC50 below 30 nM gives condition met. Equal to or above 30 nM gives condition not met.

Check out these entries, answers already filled in.
compound	qualitative_label
C=CC(=O)Nc1cc(Nc2ncc(Cl)c(O[C@@H]3CO[C@H]4[C@@H]3OC[C@H]4OC)n2)ccc1N(C)CCN(C)C	condition met
C=CC(=O)Nc1cc(Nc2ncc(Cl)c(O[C@@H]3CO[C@H]4[C@@H]3OC[C@@H]4F)n2)ccc1N(C)CCN(C)C	condition not met
C=CC(=O)Nc1cc(Nc2ncc(Cl)c(O[C@@H]3CO[C@H]4[C@@H]3OC[C@H]4O)n2)ccc1N(C)CCN(C)C	condition met
C=CC(=O)N1C[C@H](Nc2ncnc3[nH]ccc23)CC[C@@H]1C [RITLECITINIB]	condition met
C=CC(=O)Nc1cc(Nc2ncc(Cl)c(O[C@@H]3CO[C@H]4[C@@H]3OC[C@H]4O)n2)ccc1N1CCC(N2CCN(C)CC2)CC1	condition not met

Does C=CC(=O)Nc1cc(Nc2ncc(Cl)c(O[C@@H]3CO[C@H]4[C@@H]3OCC4(F)F)n2)ccc1N(C)CCN(C)C have IC50 strictly under 30 nM?
condition not met

Does C=CC(=O)Nc1cc(Nc2ncc(Cl)c(O[C@@H]3CO[C@H]4[C@@H]3OC[C@H]4F)n2)ccc1N(C)CCN(C)C have IC50 strictly under 30 nM?
condition not met

Does C=CC(=O)Nc1cc(Nc2ncc(Cl)c(O[C@@H]3CO[C@H]4[C@@H]3OC[C@H]4OC(C)C)n2)ccc1N(C)CCN(C)C have IC50 strictly under 30 nM?
condition not met

====

IC50 overview
tested on: BaF3; assay: cells; conditions: Mus musculus, BaF3, 72 h
Entry rule: numbers only, all in nM.

Field: example entries. Status: answers known.
C=CC(=O)Nc1cc(Nc2ncc(Cl)c(O[C@@H]3CO[C@H]4[C@@H]3OC[C@H]4O)n2)ccc1N1CCC(N2CCN(C)CC2)CC1 122
C=CC(=O)Nc1cc(Nc2ncc(Cl)c(O[C@@H]3CO[C@H]4[C@@H]3OC[C@H]4O)n2)ccc1N(C)CCN(C)C 133

Proceeding to the next compound to report its IC50.
# return recorded IC50 for input C=CC(=O)Nc1cc(Nc2ncc(Cl)c(O[C@@H]3CO[C@H]4[C@@H]3OCC4(F)F)n2)ccc1N(C)CCN(C)C
180

====

tested on: BaF3; assay: cells; details: Mus musculus, BaF3, 72 h
recorded_metric: IC50 (µM)
Entry rule: numbers only, all in µM.

C=CC(=O)Nc1cc(Nc2ncc(Cl)c(O[C@@H]3CO[C@H]4[C@@H]3OC[C@H]4O)n2)ccc1N1CCC(N2CCN(C)CC2)CC1 0.0201
C=CC(=O)Nc1cc(Nc2ncc(Cl)c(O[C@@H]3CO[C@H]4[C@@H]3OC[C@H]4O)n2)ccc1N(C)CCN(C)C 0.0249
C=CC(=O)Nc1cc(Nc2ncc(Cl)c(O[C@@H]3CO[C@H]4[C@@H]3OC[C@H]4OCC)n2)ccc1N(C)CCN(C)C 0.108
C=CC(=O)Nc1cc(Nc2ncc(Cl)c(O[C@@H]3CO[C@H]4[C@@H]3OC[C@@H]4F)n2)ccc1N(C)CCN(C)C 0.0886
C=CC(=O)Nc1cc(Nc2ncc(Cl)c(O[C@@H]3CO[C@H]4[C@@H]3OC[C@H]4OC)n2)ccc1N(C)CCN(C)C 0.0229

# return recorded IC50 for input C=CC(=O)Nc1cc(Nc2ncc(Cl)c(O[C@@H]3CO[C@H]4[C@@H]3OC[C@H]4OC(C)C)n2)ccc1N(C)CCN(C)C
0.179

# return recorded IC50 for input C=CC(=O)N1C[C@H](Nc2ncnc3[nH]ccc23)CC[C@@H]1C
0.0281
